- testSettings: human gut metagenome, 24 h, 2 µM; further: call rule not given here
valueKind: Bacterial Biotransformation

In [3]: df
Out[3]:
                                   compound             valueobserved
0  CN(C)CCc1c[nH]c2ccc(Cn3cncn3)cc12.O=C(O)c1ccccc1 [RIZATRIPTAN BENZOATE]  Compound NOT metabolized
1  Cc1ccc(S(=O)(=O)NC(=O)NN2CCCCCC2)cc1 [TOLAZAMIDE]  Compound NOT metabolized
2  CC(C)N(CCC(C(N)=O)(c1ccccc1)c1ccccn1)C(C)C.O=P(O)(O)O (centres undefined) [DISOPYRAMIDE PHOSPHATE]  Compound NOT metabolized

====

- assayProtocol: The drug is tested on Z-012 corresponding to metagenome with ENA study accession number: PRJEB37062 and ENA sample accession number: ERS12561812 for biotransformation under anaerobic condition. The drug concentrations were measured over 9 timepoints collected between 0 and 24 hours of incubation by liquid-chromatography-coupled mass spectrometry (LC–MS)
- testSettings: 2 µM
valueKind: Bacterial Biotransformation

                                   molecule             valueobserved
0  CC(C)(C#N)c1cc(Cn2cncn2)cc(C(C)(C)C#N)c1  Compound NOT metabolized
1  CCN(CC)C(=O)/C(C#N)=C/c1cc(O)c(O)c([N+](=O)[O-])c1      Compound metabolized
2  CC(=O)OCC(=O)[C@@]12N=C(C)O[C@@H]1C[C@H]1[C@@H]3CCC4=CC(=O)C=C[C@]4(C)[C@H]3[C@@H](O)C[C@@]12C      Compound metabolized
3            O=C(NCc1ccccc1)OCCO [BURAMATE]  Compound NOT metabolized

Input line: Let me know recorded Bacterial Biotransformation for OCCN1CCN(CCCN2c3ccccc3Sc3ccc(C(F)(F)F)cc32)CC1 , thanks.
Output line: Compound metabolized

====

- testSettings: human gut metagenome, 24 h, 2 µM
Where a SMILES comes first, the peptide text is derived from it. [ ]: non-standard residue; d: D form. pGlu = O=C1CC[C@@H](C(=O)O)N1; Thz = O=C(O)[C@@H]1CSCN1
valueKind: Bacterial Biotransformation

Answered examples (10):
molecule	Bacterial Biotransformation
CC[C@H](C)C(=O)O[C@H]1C[C@@H](C)C=C2C=C[C@H](C)[C@H](CC[C@@H]3C[C@@H](O)CC(=O)O3)[C@H]21	Compound NOT metabolized
CN1CCOC(c2ccccc2)c2ccccc2C1 (stereo unspecified)	Compound metabolized
COc1cc2c(c(OC)c1OC)-c1ccc(OC)c(=O)cc1[C@@H](NC(C)=O)CC2	Compound NOT metabolized
O=C(O)COCCN1CCN(C(c2ccccc2)c2ccc(Cl)cc2)CC1 (stereo unspecified)	Compound metabolized
O=C(O)CCc1nc(-c2ccccc2)c(-c2ccccc2)o1	Compound metabolized
CC(C)c1nc(CN(C)C(=O)N[C@H](C(=O)N[C@@H](Cc2ccccc2)C[C@H](O)[C@H](Cc2ccccc2)NC(=O)OCc2cncs2)C(C)C)cs1	Compound metabolized
CCOC(=O)[C@H](CCc1ccccc1)N[C@@H](C)C(=O)N1[C@H](C(=O)O)C[C@@H]2CCC[C@@H]21	Compound metabolized
NS(=O)(=O)c1cc2c(cc1Cl)N=C(CSCc1ccccc1)NS2(=O)=O [BENZTHIAZIDE]	Compound NOT metabolized
O=C1CC[C@@H](C(=O)N2CSC[C@H]2C(=O)O)N1 [PIDOTIMOD] ([pGlu]-[Thz]-OH)	Compound NOT metabolized
COc1c(C)c2c(c(O)c1C/C=C(\C)CCC(=O)OCCN1CCOCC1)C(=O)OC2 [MYCOPHENOLATE MOFETIL]	Compound metabolized

Input line: Annotate the molecule CNCCC(Oc1ccc(C(F)(F)F)cc1)c1ccccc1 (stereo unspecified) with its measured Bacterial Biotransformation.
Output line: Compound NOT metabolized

Input line: Identify Bacterial Biotransformation associated with the molecule CN1C[C@H](C(=O)N[C@]2(C)O[C@@]3(O)[C@@H]4CCCN4C(=O)[C@H](Cc4ccccc4)N3C2=O)C=C2c3cccc4[nH]cc(c34)C[C@H]21.CN1C[C@H](C(=O)N[C@]2(C)O[C@@]3(O)[C@@H]4CCCN4C(=O)[C@H](Cc4ccccc4)N3C2=O)C=C2c3cccc4[nH]cc(c34)C[C@H]21.O=C(O)C(O)C(O)C(=O)O [ERGOTAMINE TARTRATE]
Output line: Compound metabolized

====

- assayProtocol: The drug is tested on WLS-073 corresponding to human gut metagenome with ENA study accession number: PRJEB37062 and ENA sample accession number: ERS12561749 for biotransformation under anaerobic condition. The drug concentrations were measured over 9 timepoints collected between 0 and 24 hours of incubation by liquid-chromatography-coupled mass spectrometry (LC–MS)
- testSettings: 2 µM
Where a SMILES comes first, the peptide text is derived from it. [ ]: non-standard residue; d: D form. pGlu = O=C1CC[C@@H](C(=O)O)N1; Thz = O=C(O)[C@@H]1CSCN1
valueKind: Bacterial Biotransformation

Consider the following illustrative entries.
compound	Bacterial Biotransformation
CCCCC(=O)N(Cc1ccc(-c2ccccc2-c2nnn[nH]2)cc1)[C@H](C(=O)O)C(C)C	Compound NOT metabolized
CC(C)NCC(O)COc1ccc(CCOCC2CC2)cc1 (centres undefined) [BETAXOLOL]	Compound NOT metabolized
NC(=O)N1c2ccccc2CC(=O)c2ccccc21 [OXCARBAZEPINE]	Compound NOT metabolized
O=C1CC[C@@H](C(=O)N2CSC[C@H]2C(=O)O)N1 [PIDOTIMOD] ([pGlu]-[Thz]-OH)	Compound NOT metabolized
COc1ccccc1OCC(O)COC(N)=O (centres undefined) [METHOCARBAMOL]	Compound NOT metabolized
CN1C(C(=O)Nc2ccccn2)=C(O)c2sccc2S1(=O)=O [TENOXICAM]	Compound NOT metabolized
CCCC1O[C@@H]2C[C@H]3[C@@H]4CCC5=CC(=O)C=C[C@]5(C)[C@H]4[C@@H](O)C[C@]3(C)[C@]2(C(=O)CO)O1 (some centres undefined) [BUDESONIDE]	Compound NOT metabolized
CNC(=C[N+](=O)[O-])NCCSCc1ccc(CN(C)C)o1 [RANITIDINE]	Compound NOT metabolized
COc1c(C)c2c(c(O)c1C/C=C(\C)CCC(=O)OCCN1CCOCC1)C(=O)OC2 [MYCOPHENOLATE MOFETIL]	Compound metabolized
O=C(O)CCc1nc(-c2ccccc2)c(-c2ccccc2)o1 [OXAPROZIN]	Compound metabolized

Input line: Tell me its Bacterial Biotransformation given CCN(CC)CCNC(=O)c1cc(Cl)c(N)cc1OC [METOCLOPRAMIDE] as the entry.
Output line: Compound NOT metabolized

Input line: For the compound CCCC(=O)Nc1ccc(OCC(O)CNC(C)C)c(C(C)=O)c1 (centres undefined) [ACEBUTOLOL] , give its reported Bacterial Biotransformation.
Output line: Compound NOT metabolized

Input line: State its Bacterial Biotransformation: O=C(O)COCCN1CCN(C(c2ccccc2)c2ccc(Cl)cc2)CC1 (centres undefined) [CETIRIZINE]
Output line: Compound metabolized

Input line: Please look at this compound and report its Bacterial Biotransformation: CNCCC(Oc1ccc(C(F)(F)F)cc1)c1ccccc1 (centres undefined) [FLUOXETINE]
Output line: Compound NOT metabolized

Input line: State, in one line, measured Bacterial Biotransformation of CN1CCc2cccc3c2[C@H]1Cc1ccc(O)c(O)c1-3 [APOMORPHINE]
Output line: Compound NOT metabolized

Input line: For the compound O=c1n(CCCN2CCN(c3cccc(Cl)c3)CC2)nc2ccccn12 [TRAZODONE] , report Bacterial Biotransformation.
Output line: Compound metabolized

Input line: Indicate its recorded Bacterial Biotransformation; the compound in question is CC(C)(Oc1ccc(CCNC(=O)c2ccc(Cl)cc2)cc1)C(=O)O [BEZAFIBRATE]
Output line: Compound metabolized

Input line: Assign Bacterial Biotransformation to the following record: COc1cc2nc(N(C)CCCNC(=O)C3CCCO3)nc(N)c2cc1OC (centres undefined) [ALFUZOSIN]
Output line: Compound metabolized

Input line: Indicate the recorded Bacterial Biotransformation value for this compound: CCN(CC)CCNC(C(=O)OCCC(C)C)c1ccccc1.Cl.Cl (centres undefined)
Output line: Compound metabolized

====

- assayProtocol: The drug is tested on WLS-220 corresponding to human gut metagenome with ENA study accession number: PRJEB37062 and ENA sample accession number: ERS12561769 for biotransformation under anaerobic condition. The drug concentrations were measured over 9 timepoints collected between 0 and 24 hours of incubation by liquid-chromatography-coupled mass spectrometry (LC–MS)
- testSettings: 2 µM
valueKind: Bacterial Biotransformation

In [3]: df
Out[3]:
                                   molecule             valueobserved
0  CC(C)N(CCC(C(N)=O)(c1ccccc1)c1ccccn1)C(C)C.O=P(O)(O)O (stereo not drawn) [DISOPYRAMIDE PHOSPHATE]  Compound NOT metabolized
1  CN(C)CC(c1ccc(O)cc1)C1(O)CCCCC1.O=C(O)CCC(=O)O (stereo not drawn) [DESVENLAFAXINE SUCCINATE]  Compound NOT metabolized
